B1: TRIM35 (parent)
chain: WEVQVSPTCPVCKDRASPADLRTN

variants of: B1; assay: protein stability index of a GFP-peptide fusion (GPS, HEK-293T) (PSI 1-6); higher = more stable; details: c terminus: a fixed tail appended;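 note: lentivirally expressed fusions sorted by FACS into six bins by GFP to DsRed ratio, PSI derived from sequencing read proportions per bin multiplied by bin number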
readout.label: protein stability index
Answers are plain numbers.

V11L: 1.9
L21A: 3.04
D14A: 2.49
K13T: 2.31

# map each variant to its protein stability index
1. R15S
2. E2G
3. S6C
4. C9D
5. W1C
6. T8I
7. A16Y

1. 3.07
2. 2.56
3. 2.63
4. 4.9
5. 3
6. 2
7. 2.08

# map each variant to its protein stability index
1. S6N
2. R15M
3. P18I
4. W1S
5. A16H
6. K13G
7. D20S
8. N24D

3.46
2.04
2.87
2.6
2.71
1.7
1.68
3.14

# map each variant to its protein stability index
1. S17D
2. A16Q
3. A19G
4. C12E
5. C12K
6. E2A

[3.31, 2.96, 2.24, 4.81, 3.88, 2.48]

# map each variant to its protein stability index
1. V3L
2. R22K

[2.55, 3.34]

# map each variant to its protein stability index
1. K13V
2. A19I
3. W1R
4. A19M
5. E2D
6. T8L
7. A16G

2.7
2.05
3.66
2.42
2.2
1.88
2.15

# map each variant to its protein stability index
1. K13S
2. T23E
3. P7L
4. L21M
5. S17Q

[2.19, 2.83, 1.9, 2.13, 2.84]

# map each variant to its protein stability index
1. C9A
2. N24R
3. T8V
4. D20N
5. D20V
6. T23M
7. K13F

4.38
2.74
1.66
2.2
1.97
2.5
1.94
